- MEASUREMENT_NOTES: yeast display, Sf9 membrane polyspecificity reagent, FACS + sequencing; frameworks hold sequencing errors
VALUE_TYPE: polyreactivity (PSR sort gate)

Consider the reported polyreactivity (PSR sort gate) for these sequences:
RESIDUES	polyreactivity (PSR sort gate)
QVQLVESGGGLFQAGGSLRLSCAASGSIFTKYAMGWYRQAPGKERELVAAISQGGASTRYADSVKGRFTISRDNAKKTVYLQMNSLKPEDTAVYYCAAKSRHFWMDYWGQATQVTVSS	high polyreactivity
QVQLQESGGGLVQAGGSLRLSCAASGTILYSLGMGWYRQAPGKRREFVASITWGTTTNYAESVKGRFTISRDNAKNTVYPQMNSLKPDVTAVYDCAAPPFGDSSYHYWGQGTQVTVSS	low polyreactivity
QVQLVESDGGLDQAGGSLRLSCPASGIIFGYYVMGRYRQAPGKERELVASITSGGSTNYADSVKGRFTISRDNAKNTVYLQMNSLKPEDTAVYYCAAEERTDTIPGWRYPHDYWGQGTQVTVSS	low polyreactivity
QVQLVESGGGLVKAGGSLRLTCAASGRIFVNYAMGWYRQAPGKEMELVAAINWSGGRTYYADSVKGRFTISRDNAKNTVYLQMNSLKPEDTAVYYCAAEWEGTYTTVPDEFNYWGQGTQVTVSS	high polyreactivity
QVQLVESGGGLVQAGGSLRLSCAASGSTFYLYAMGWYRQAPGKERELVAAITYGGGSTYYADSVKGRFTISRDNAKNTVYLQMNSLKPEDTAVYYCAARWLYWPRYTSLVYTHRDSWGQGTQVTVSA	low polyreactivity

Record polyreactivity (PSR sort gate) per entry; entries follow.
1. QVQLEESGGGLVQAGGSLRLSCAASGSIFEGNGMGWYRPAPGKERELVAAITFRSGSTYYADSVKGRFTISRDNAKNTVYLQMNSLKPEDTAVYYCAADEYYKVSAYDFWGQGTQVTVSS
2. QVQLVESGGGLVQAGGSLRLSCAASGRTFYSYAMGWYRPAPGKERELVAAINTSGGRTHYADSVKGRFTISRDNGKNTVYLQMNSLKPEDTAVYYCAAEVFRTRTWEYYYWGQGTQVTVSS

Result:
1. low polyreactivity
2. high polyreactivity

For each entry beneath this line, provide reported polyreactivity (PSR sort gate).
1. QVQLVESGGGLVQAGGSLSLICAASGFIFYYYAMGWYRQAPGKERELVAGMSRRGGSTYYADSVKGRFTISRDNAKNTVYLQMNSLKPEDTAVYYCAALGDDATSYGYWGQGTQVTVSS
2. QVQLVESGGGLVQAGGSLRLSCAASGSIFSYYGMGWYRQAPGKERELVAAITDGDGTNYADSVKGRFTISRDNAKNTVYLQMNSLKPEDTAVYYCARDDRDIRGESGREGFLYDYWGQGTQVTVSS
3. QVQLVESGGGLVQAGGSLRLSCAASGLIFRPYTMGWYRQAPGKERELVAAISRSGGSTYYADSVKGRFTISRDNAKNTVYLQVNSLKPEDTAVYYCNAVPRRQGFNYWGQGTQVTVSS
4. QVQLVESGGGLVQAGGSLRLSCAASGRIIKVYAMAWYRQAPGKDRELVAAISSRGGSTYYADSVKGRFTISRDNAKNTVYLQMNSVKPEDTAVYYCAALVTWLHPKGDYWGQGTQVTVSS

Result:
high polyreactivity
low polyreactivity
high polyreactivity
low polyreactivity

Go through the list and state polyreactivity (PSR sort gate) for each entry.
1. QVQLVESGGGLVQAGASLRLSCAASGSNFWFYAMGWYRQAPGKERELVAVISNSGSTYYADSVKGRFTFSRDNAQNTVYLQMNSLKAEDTAVYYCNKDGGGDSYWYDYWGQGTQVTVSS
2. QVQLVESGGGLVQAGGSLRLSCAASGRIVSLNAMGWNRQAPGKERELVAGIRKRGRSTYYADSVKGRFTISRDNAKNTVYLQMNSLKPEDTAVYYCAAQPALTYRFYYWGQGTQVTVSS
3. QVQLVESGGGLVQAGGSLRLSCAASGSIFYRYAMGWYRQAPGKERELVAAISFRTGSTYYADSVKGRFTISRDNAKNTVYFQMNSLKPEDTAVYYCAAEQLSTLRQRFDSWGQGTQVTVSS
4. QVQLVESGGGLVQAGGSLRLSCASSGSTFDANAMGWYRQAPGKERELVAAITSNGGSTYYADSVKGRFTISRDNAKNTVYLQMNSLKPEDTAVYYCATEQHTVQDYDYWGQGTQVTVSS

Result:
1. low polyreactivity
2. high polyreactivity
3. high polyreactivity
4. low polyreactivity

----------
- MEASUREMENT_NOTES: yeast display, Sf9 membrane polyspecificity reagent, FACS + sequencing; frameworks hold sequencing errors
VALUE_TYPE: polyreactivity (PSR sort gate)

Some solved entries appear below for comparison.
RESIDUES	REPORTED_VALUE
QVQLVESGGGLVQAGGSLRLSCAASGSIFGYVMGWSRQAPGKERELVAAISSGGSTDYADSVKGRFTISRDNAKNTVYLQMNSLKPEDTAVYYCAADTDNGYTYYYWGQGTQVTVSS	low polyreactivity
QVQLVESGGGLVQAGGSLRLSCAASGSTFQDYAMGWYRQAPGKERELVAAISKRGGRTYYADSVKGRFTISRDNAKNTVYLQMNSLKPEETAVYYCNTYPVPGGVTYSYTGFDYWGQGTQVTVSS	high polyreactivity
QVQLVESGGGLVQAGGSLRLSCAASGRIIYAYAMGWYRQTPGKERELVAAISTRGGTTYYADSVKGRFTISRDNAKNTVYLQMNSLKPEDTAVYYCNALRVSRRVGYDSWGKGTQVTVSS	high polyreactivity
QVQLVESGGGLVQAGGSLRLSCAASGSIFGRYAMGWYRQAPGKERELVANITSGDSTNYADSVKGRFTISRDNAKNTVYLQMNSRKPEDTAVYYCAAYRIGQYDYWGQGTQVTVSS	high polyreactivity

# batch size: 4; output polyreactivity (PSR sort gate) per entry
1. QVQLVESGGGLVQAGGRLRLICAAYGSTFSLYALGWYRQAPGKERELVADINSGGGTYYADSVKGRFTISRDNAKNTVYLQMNSVKPEDTAVYYCNAPVARGEASYYWGHGTQVTVSS
2. QVQLVESGGGLVQAGGSLRLSCAASGIIFYGYAMGWYRQAPGKERELVAGISSGGSTYYADSVKGRFTISRDNAKNTVYLQMNSLKPVDTAVSYCNADGGYSYESTDHYGYDYWGQGTQVTVSS
3. QVQHVESGRGLVQAGGSLRLSCAASGSIFSSYARGWSREAPGKERELVAAISQSGGDTYYADSVKGRFTISRDNAKNTVYLQMKSLKPEDTAVYYCAASVWYYPMDYWGQGTQVTVSS
4. QVQLVESGGGLVQAGGSLRLSCAASGRISPKNAMGWNTQAPGKERELVATIRKIGGRTYYADSVKGRFTISRDNAKNTVYLQMNSLKPEDTAVYYCATDFAPSYYPDRFDYWGQGTQVTVSS

Result:
high polyreactivity
low polyreactivity
low polyreactivity
low polyreactivity

Provide reported polyreactivity (PSR sort gate) for each item, in the same order as listed.
1. QVQLVESCGGLVQAGGSLRVSCAASGITFDGYAMGSYRQAPGKERELVAAITRRGGNTYYADSVKGRFTISRDNAKNTVHLQLNSQKPEDTAFYYCNAQVVHYRVSSVITYTIYDYSGQGTQVTVSS
2. QVQLVESGAGLFQAGGSLRISCAASGLIFDGYAMGWYRQATGKERELVAAITRSGGSTSYADSVKARFTISRDNAKNTVYLHMNSLKPEDTAVYYCAAKVHTFYYHYYSWGQGTQVTVSS
3. QVQHVESGGGLVQAGGSLRLSCAASGIIFTTYAMGWYRQAPGKERELVAAISRSGSTYYADSVKGRFTISRDNAKNTVYLQMNSLKPEDTAVYYCASGRWRWRGYDYYWGQGSQVTVSS
4. QVQLVESGGGLVQAGGSLSLSCAASGSIFYHNAMGWYRQAPGKERELVAAITGSGGSTYYADSVKGRFTISRDNAKNTVYLQMNSLKPEDTAVYYCAAVQLYQKHQITYVAHEYWGQGTQVTVSS
5. QVQIVESGGGLVQAGGSLRLSCDASGSIFGRNAMGWYRQAPGKERELVAAITRTGGRTYYPDSVKGRITISRDNAKNTVYLQMNSLKPEDTEVKYCARYGGYWSLKYDYWGQGTQVTVSS

Result:
["high polyreactivity", "high polyreactivity", "high polyreactivity", "low polyreactivity", "high polyreactivity"]

Go through the list and state polyreactivity (PSR sort gate) for each entry.
1. QVQLVESGGGLVQAGGRLRLSCAASGSTLDPYAMGLYRQAPGKERELVAAITISGGTTYNADSVKGRFTISRDNAKNTVYLQMNSMKPEDTAVYYCAAEGTYVTLGYYNLDVRYDYWGQGTQVTVSS
2. KVHLVDSGGRLVQAGGSLRLSCSASGSIFYVYAMGWYRQAPGTERELVATISSSAGSTYYAYSVKGRFTISRDNAKNTVNLQMYSLNPVDTAVYYCYADSFLSWVYRYVYYVSGLWGQGTQVTVSS
3. QVQLVESGGGLVQAGGSLSLSCASSGSIFVRNVMGWYRQAPWKERELVATIRTRGGSTSYADSVKGRFTISRDNAKNTVYLQMNSLTPEDTAVYYCNARLSYRSAWYYGGDRYDYWGQGTQVTVSS
4. QVQLVESGVRLVQSGGSLRLSCASSGFTIWRYAMGWYRQAPGKERELVAAISRSGTRTYYADSVKGRFTISRDNAKNTVYLQMNSLKPEDTAVYYCAADGLSLAYEHDYWGQGTQVTVSS
5. QVQLVESGGGLVQAGGSLRLSCAPSGRIFPGYAMGWYRQAPGKERELVAAISTNGGRTYYADSVKGRFTISRDNAKNTVYLQMNSLKPEDTAVYYCNAARAVYTQKRFDSWGQGTQVTVSS
6. QVQLVESGGGLVQAGGSLRLSCAASGYTFWDYALGCYRQAPGKERAFVAGISFSDGGTYYADSVKGRFTISRDNAKNTVYLQMNSLKPEDTAVYYCAATYPYSWVYSGYYYWGQGTQVTVSS

Result:
low polyreactivity
low polyreactivity
high polyreactivity
high polyreactivity
high polyreactivity
low polyreactivity

Please state polyreactivity (PSR sort gate) for every sequence in the list that follows.
1. QVQLVESGGGLVQAGGSLRLSCAASGRTFSYNAMGWYRQAPGKERELVAAINWRAGRTYYADSVKGRFTISRDNAKNTVYLQMNSLKPEDTAVYYCNARSGRGQAYGYWGQGTQVTVSS
2. QVQLVESGGGLVQAGGSLRLSCAASGFTFNGNAMGWYRPAPGKERELVAAITRTGTDTSYADSVKGRFTISRDNAKNTVYLQMNSLKPEDTAVYYCAAPPYNGYRYGTTGYYWGQGTQVTVSS

Result:
1. high polyreactivity
2. low polyreactivity
